# Protocol Details: Pharmacokinetics after single IP administration
# Condition: K18-hACE2(Tg) C57Bl/6J, mouse, in vivo, 40 mg/kg, AUC ratio (Tissue/PL), Liver, single IP
Value Type: Kp
Form rule: numeric answer, no unit written next to it.

If you can, please state the reported Kp value of NC(=O)N1CCC(CC(=O)N2CCC([C@H]3c4ncc(Br)cc4CCc4cc(Cl)cc(Br)c43)CC2)CC1 .
12

---

# Protocol Details: Pharmacokinetics after PO administration
# Condition: K18-hACE2(Tg) C57Bl/6J, mouse, brain, 25 mg/kg
Value Type: Tmax (h)
Number in h, nothing else.

What value of Tmax has been recorded for this entry: NC(=O)N1CCC(CC(=O)N2CCC([C@H]3c4ncc(Br)cc4CCc4cc(Cl)cc(Br)c43)CC2)CC1
7

---

# Protocol Details: Pharmacokinetics after single IP administration
# Condition: K18-hACE2(Tg) C57Bl/6J, mouse, kidney, 40 mg/kg
Value Type: AUC(0-inf) (µM·h)
Give just the numeric value; µM·h need not be written.

Request the reported AUC(0-inf) associated with NC(=O)N1CCC(CC(=O)N2CCC([C@H]3c4ncc(Br)cc4CCc4cc(Cl)cc(Br)c43)CC2)CC1 [LNF, lonafarnib]
699

---

# Protocol Details: Pharmacokinetics after single IP administration
# Condition: K18-hACE2(Tg) C57Bl/6J, mouse, in vivo, 40 mg/kg, C24h, Brain, single IP
Value Type: concentration at 24 h (nM)
Unit nM implied. Number only.

Quick check: concentration at 24 h of NC(=O)N1CCC(CC(=O)N2CCC([C@H]3c4ncc(Br)cc4CCc4cc(Cl)cc(Br)c43)CC2)CC1 [LNF, lonafarnib] ?
360

---

# Protocol Details: in vitro
# Condition: human
Value Type: CC50

Param item = NC(=O)N1CCC(CC(=O)N2CCC([C@H]3c4ncc(Br)cc4CCc4cc(Cl)cc(Br)c43)CC2)CC1 [LNF, lonafarnib] ; retrieve measured CC50.
> 30 µM

---

# Protocol Details: Pharmacokinetics after single IP administration
# Condition: K18-hACE2(Tg) C57Bl/6J, mouse, heart, 40 mg/kg
Value Type: Tmax (min)
Could you give me the number in min? Just the number is fine.

Return reported Tmax; argument: NC(=O)N1CCC(CC(=O)N2CCC([C@H]3c4ncc(Br)cc4CCc4cc(Cl)cc(Br)c43)CC2)CC1
30

---

# Protocol Details: Pharmacokinetics after single IP administration
# Condition: K18-hACE2(Tg) C57Bl/6J, mouse, in vivo, 40 mg/kg, C24h, Plasma, single IP
Value Type: concentration at 24 h
Could you give the number and then its unit, please?

Given the molecule NC(=O)N1CCC(CC(=O)N2CCC([C@H]3c4ncc(Br)cc4CCc4cc(Cl)cc(Br)c43)CC2)CC1 , what is its reported concentration at 24 h?
2760 nM

---

# Protocol Details: Pharmacokinetics after single IP administration
# Condition: K18-hACE2(Tg) C57Bl/6J, mouse, heart, 40 mg/kg
Value Type: AUC(0-inf) (µM·h)
Write the number in µM·h without appending the unit.

// returns reported AUC(0-inf) for input NC(=O)N1CCC(CC(=O)N2CCC([C@H]3c4ncc(Br)cc4CCc4cc(Cl)cc(Br)c43)CC2)CC1
987

---

# Protocol Details: Pharmacokinetics after PO administration
# Condition: K18-hACE2(Tg) C57Bl/6J, mouse, lung, 25 mg/kg
Value Type: Cmax (µM)
Numeric only. Scale: µM

# lookup: Cmax of NC(=O)N1CCC(CC(=O)N2CCC([C@H]3c4ncc(Br)cc4CCc4cc(Cl)cc(Br)c43)CC2)CC1
33
